// compounds with pIC50 on SYK kinase (Homo sapiens, UniProt P43405), multi-source literature
pIC50: −log10 of the molar value.
assayReadout: pIC50

compound="CS(=O)(=O)N1CCC(c2ccc(-c3cc4nccnc4c(OCC4CCCCO4)n3)cc2)CC1 (centres unmarked)" boundsign== experimentalresult=6.57
compound="CC1(C)C(=O)Nc2cc(Nc3nc4c(N5C[C@@H](CO)C[C@H]5c5ccccc5)nccn4n3)ccc21 (single isomer, unassigned)" boundsign=> experimentalresult=7.00
compound=CNS(=O)(=O)N1CCO[C@H](COc2nc(-c3ccc(OC)c(OC)c3)cc3nccnc23)C1 boundsign== experimentalresult=7.07
compound=CN1CCN(c2ccc(-c3cc4nccnc4c(OC[C@@H]4CN(S(C)(=O)=O)CCO4)n3)cc2)CC1 boundsign== experimentalresult=7.60
compound=N[C@H]1COCC[C@H]1Nc1nc(-c2cc3cccnc3s2)c2c(c1F)CNC2=O boundsign== experimentalresult=9.60
